- Test system: CCRF-CEM leukemia
- ASSAY_METHOD_TEXT: NCI tumour cell line growth inhibition, 48 h
Consider the following compounds; for each one, report its GI50.

Quote GI50 reported for COc1cc(/C=C/C(=O)/C=C/c2cc3ccc(Cl)cc3n(Cc3ccccc3)c2=O)ccc1O please. 1.4 µM

Return GI50 (reported value) for this compound: N#Cc1ccccc1C#C/C=C\C#Cc1ccccc1N 1.6 µM

Item Cc1ccc(-c2nc(N3CCNCC3)c3oc(-c4ccccc4)nc3n2)cc1 : provide GI50 2.16 µM

Return GI50 (reported value) for this compound: Cc1ccc(NC(=O)Nc2c(Cl)cccc2Cl)cn1 5.79 µM

Tell me its GI50 given NC(Cc1c[nH]c2ccc(F)cc12)C(=O)O (centres undefined) as the entry. 1090 µM

Please give the documented GI50 of CN1CCN(c2ccc(NC(=O)c3cncnc3Nc3ccc(OCc4cccc(F)c4)c(Cl)c3)cc2)CC1 1.27 µM

Assign GI50 to the following record: O=C(Nc1cccc(-n2cc(-c3ccncc3)c(-c3ccc(O)c(Cl)c3)n2)c1)c1cc(C(F)(F)F)cc(C(F)(F)F)c1 2.21 µM

Supply GI50 value. Item: CC1C(=O)c2cc3c(cc2CCN(C)Cc2c1ccc1c2OCO1)OCO3 (centres undefined) 22 µg/mL

Assign GI50 to the following record: CCN(CC)c1ccc2nc3c4ccccc4c(=O)cc-3n(-c3ccccc3)c2c1 2.33 µM

* * *

- Test system: RXF 393 renal
- ASSAY_METHOD_TEXT: NCI tumour cell line growth inhibition, 48 h
READOUT_NAME: TGI (µM)
Field: numeric (µM). Do not append units.

Provide the reported TGI (system: RXF 393 renal) for Clc1ccc(OCc2nnc3n2N=C(c2ccc(Br)cc2)CS3)cc1 61.8

Write down measured TGI (RXF 393 renal) for this compound. Cc1cc(C)c2c(=O)n(CC(O)CN3CCN(CCOCCO)CC3)sc2n1 (centres undefined) 21

State TGI (RXF 393 renal) of C=C1C(=O)O[C@H]2C/C(C)=C/CC[C@]3(C)CCC[C@](C)(CC[C@@H]12)O3 . 18.4

Give the observed TGI of COc1cc(C2C(C(=O)Nc3ccc([N+](=O)[O-])cc3)=C(C)NC(C)=C2C(=O)Nc2ccc([N+](=O)[O-])cc2)ccc1O for RXF 393 renal. 39

Fill in: TGI on RXF 393 renal, entry O=C(Cc1ccc([N+](=O)[O-])c([N+](=O)[O-])c1CC(=O)C(=O)Nc1cc(Cl)ccc1Cl)C(=O)Nc1cc(Cl)ccc1Cl 94.7

Give TGI only, for CCOc1ccc(OCC)c([P+](c2ccccc2)(c2ccccc2)c2ccccc2)c1 , using RXF 393 renal data. 15.7

Retrieve TGI on RXF 393 renal; query COc1ccc(-n2c3c(c4cc(O)ccc42)Cc2ccccc2C3=O)cc1 9.38

* * *

- System: IGROV1 ovarian
- ASSAY_METHOD_TEXT: NCI tumour cell line growth inhibition, 48 h
READOUT_NAME: TGI

// fetch TGI given entry C=C1C(=O)O[C@H]2C/C(C)=C/CC[C@]3(C)CCC[C@](C)(CC[C@@H]12)O3 14.5 µM

Return the recorded TGI value; entry: CCN(CC)c1ccc2cc(C(=O)NCc3ccccc3)c(=N)oc2c1 > 100 µM

Quick one: give measured TGI for COc1ccc(C(=O)O[C@H]2[C@H](O[C@H]3[C@@H](O)COC(O[C@H]4C[C@H]5[C@@H]6CC=C7C[C@@H](O)CC[C@]7(C)[C@H]6CC[C@]5(C)[C@H]4[C@H](C)C(=O)CCC(C)C)[C@@H]3OC(C)=O)OC[C@@H](O)[C@@H]2O)c(C)c1 (stereo not given in full) 48.9 µM

State its TGI: COc1cccc(C2=C(c3cn(C)c4cc(F)ccc34)C(=O)NC2=O)c1 > 25 µM

Given the molecule Cc1ccc(/C=C/c2c(C(=O)/C=C/c3ccc(Cl)cc3)c(C)nc3ccccc23)cc1 , write its reported TGI. 2.38 µM

Identify measured TGI associated with ClCc1ccc(Cn2cnc3c(Cl)ncnc32)cc1 42 µM

For CC1=C[C@@H](C)C[C@]2(C)CC[C@H](O2)[C@]23CC[C@](CO)(C[C@H](O2)[C@@H]2O[C@@](C)(CC2=O)[C@@H](O)[C@H]2CC[C@@]4(CCC[C@@H](O4)[C@H](C)C(=O)O[C@H]4C[C@H]([C@]5(O)OCC[C@H](C)[C@@H]5O)O[C@H]4C=C1)O2)O3 , write its TGI. 0.0561 µM

Supply recorded TGI for O=C1c2cccnc2C(=O)c2c1c(C(=O)NCCn1ccnc1)c1ccccn21 here. 14.2 µM

State its TGI: c1ccc(-c2c3c(nc4c2CC[C@H]4NC2=NCCN2)[C@@H](NC2=NCCN2)CC3)cc1 > 100 µM

In one line, give reported TGI of the entry CCCCCCCCCCSC(=O)NC . > 100 µM

Answer with the recorded TGI of O=S(=O)(c1ccccc1)N1CN2CN(C1)CN(S(=O)(=O)c1ccccc1)C2 only. > 100 µM

Item CCN(CC)CCC1(C2CCCCC2)CCC(=O)NC1=O (stereo not given) : provide TGI > 100 µM

Kindly indicate its recorded TGI. Item: CCN(CC)C(=S)SC1C(=O)NC(=O)NC1=O > 100 µM

Determine from records and report TGI for CCOC(=O)C(/C(=N\NC(=O)OC)C(=O)Nc1cc(OC)ccc1OC)c1cnc2ccccc2n1 (stereo not given) > 100 µM

Input CC(=O)Nc1ccc(/C=C2\N=C(c3ccccc3)OC2=O)cc1 , output reported TGI. > 31.6 µM

Identify measured TGI associated with Cc1ccc(NC(=O)Nc2c(Cl)cccc2Cl)cn1 > 100 µM

Please supply the value of reported TGI for the item Cc1nc(C)c(N2CCN(C(=O)O)CC2)c(=O)[nH]1 > 100 µM

Tell me its TGI given CCOC(=O)N(C)C(=C(F)F)C(F)(F)F as the entry. 62.4 µM

Let me know recorded TGI for CCOC(=O)c1cnc2c(ccc3[nH]cccc32)c1=O , thanks. > 100 µM

Give TGI for the following molecule: N/C(=N\N=C\c1cc(I)cc(I)c1O)NO > 100 µM

Give TGI for O=c1c2ccccc2nc(-c2ccccc2Cl)n1-c1nnc(C(F)(F)F)s1 > 100 µM

Specify TGI for COc1cc(/C=C/C(=O)N2CCC=CC2=O)cc(OC)c1OC and stop. 11.2 µM

Give the reported value of TGI for this record: Cc1cc(C)c2c(=O)n(CC(O)CN3CCN(CCOCCO)CC3)sc2n1 (stereo not given) > 100 µM

Supply reported TGI belonging to this molecule: C[C@@H]1OC2(O)[C@H]3CCCN3S(=O)(=O)CCN2C1=O (stereo not given in full) > 100 µM

# return recorded TGI for input OCc1ccc(N2CCc3cc(F)ccc3C2)cc1Cl 0.0941 µM

Supply TGI value. Item: C/C(=N/O)c1ccc2c(c1)/C(=N/O)c1ccccc1-2 41.1 µM

Quote TGI reported for Cc1cc2ccc(OC(=O)c3ccc(N=C(N)N)cc3)cc2oc1=O please. > 100 µM

Read the entry C[N+]1(CCC(=O)c2ccccc2)CCC2CCC(C2)C1 (stereo not given) and write its reported TGI. > 100 µM

Please give measured TGI of the following entry: CCc1[nH]c(=O)c2oc3cc4ccccc4cc3c2c1C(=O)O > 10 µM

Read the entry O=C(Nc1cccc(-n2cc(-c3ccncc3)c(-c3ccc(O)c(Cl)c3)n2)c1)c1cc(C(F)(F)F)cc(C(F)(F)F)c1 and write its reported TGI. > 50 µM

State, in one line, measured TGI of CN(C)C(=O)NC(=S)N(C)C > 100 µM

Indicate the recorded TGI value for this molecule: OC(Cc1ccc2ccccc2n1)(C(F)(F)Cl)C(F)(F)Cl > 10 µM

Annotate the molecule CCOCC(=O)N(C)c1cccc2c3c(n(C)c12)CCCCC3 with its measured TGI. > 100 µM

Dear colleague, please send me the reported TGI for Cc1c(-c2ccc(O)cc2)oc(=O)c2ccc(O)cc12 when you can. > 100 µM

Answer with the recorded TGI of CCCCCCSCC/C(C)=N\OC only. > 100 µM

Give the reported TGI for this molecule. CN(C)Cc1ccc(C(C)(C)C)cc1-c1cc(C(C)(C)C)ccc1CN(C)C > 100 µM

Give the reported value of TGI for this record: [N-]=[N+]=Nc1ccc2c(c1)Sc1ccccc1N2CCCCN1CCN(Cc2ccc(C(=O)c3ccc(CSCC(N)C(=O)O)cc3)cc2)CC1 (stereo not given) 30.9 µM

Using the record for O=C(c1ccccc1)c1ccc2c(c1)nc1n2C(c2c(F)cccc2F)SC1 (stereo not given) , state its measured TGI. > 100 µM

Tell me its TGI given O=C(O)C1CCCCN1C(=O)Cc1c[nH]c2ccccc12 (stereo not given) as the entry. > 100 µM

Look up and report measured TGI for this entry: COC(=O)C1=C(OC(=O)/C=C/c2ccc(Cl)cc2)C(C(=O)OC)[C@]2(O)[C@@H](C(=O)OC)[C@H]1C[C@@H](c1ccccc1)[C@@H]2C(=O)OC (stereo not given in full) > 25.9 µM
